Target: Alpha-bungarotoxin (Bungarus multicinctus) (UniProt P60615)
Sequence (P60615 whole entry, looked up): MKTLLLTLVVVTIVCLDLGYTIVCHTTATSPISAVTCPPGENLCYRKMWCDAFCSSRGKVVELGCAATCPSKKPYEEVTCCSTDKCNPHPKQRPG
Test: compounds binding labelled alpha-BTX control protein – biochemical, small-molecule microarray, Alexa647 label, 635/667 nm fluorescence, artefact control for SMM control protein annotation, profiling panel (AID 1117)
Conditions: alpha-BTX-A647 binding fluorescence, higher = more signal

compound | composite z-score
CC(C)NC(=O)[C@@]1(c2ccc([N+](=O)[O-])cc2)CC(=O)N(C(C)C)[C@@H]1c1ccc(CO)cc1 | -0.125
C[C@]1(C(=O)NCC(F)(F)F)c2ccccc2C(=O)N(Cc2cc(F)cc(C(F)(F)F)c2)[C@H]1c1ccc(CO)cc1 | 0.0035
CC(C)(C)OC(=O)CC[C@@]1(C(N)=O)N=C(c2ccc(OCCCO)cc2)O[C@@H]1c1ccccc1N=[N+]=[N-] | 1.22
COC(=O)c1c(CC[C@@H](CO)NC(=O)Nc2ncn[nH]2)oc(C(=O)Cc2ccccc2)c1C(=O)OC | 0.924
NC(=O)NCC#Cc1ccc2c(c1)[C@]1(C(=O)N2)[C@H](C(=O)NC[C@H](O)c2ccccc2)[C@H]2C(=O)O[C@H](c3ccccc3)[C@H](c3ccccc3)N2[C@@H]1c1ccccc1OCCO | 3.26
Cc1cc(C)c(C(O)C2C=CC3C(=O)NC(=O)C3N2Nc2ccccn2)c(C)c1 (configuration not stated) | 0.0525
O=C1c2ccccc2[C@](Cc2ccccc2I)(C(=O)O)[C@H](c2ccc(CO)cc2)N1Cc1ccccc1C(F)(F)F | 1.58
CC1CC/C=C\[C@H]2OC34C=CCN(Cn5nnc6ccccc65)C(=O)[C@H]3N(CCCO)C(=O)[C@@H]4C2C(=O)O1 (some centres not stated) | -0.744
COc1ccc([Si](C)(C)[C@@H]2[C@@H](CCO)O[C@]3(C(=O)N(Cc4cccc(N(C=O)c5ccccc5)c4)c4ccccc43)[C@H]2C)cc1 | 0.956
COc1ccccc1CN1C(=O)c2ccccc2[C@](Cc2ccccc2I)(C(=O)NCc2ccccc2)[C@@H]1c1ccc(CO)cc1 | 1.05
CC(C)(C)OC(=O)CC[C@@]1(C(=O)NCC(O)CO)N=C(c2ccc(OCCCO)cc2)O[C@@H]1c1ccccc1 (some centres not stated) | 1.04
O=C(NCC(O)CO)[C@]1(CCS(=O)(=O)c2ccccc2)N=C(c2ccc(OCCCO)cc2)O[C@@H]1c1ccccc1 (some centres not stated) | 2.41
[N-]=[N+]=NCc1ccccc1C[C@@]1(C(=O)NCc2ccccc2)N=C(c2ccc(OCCCO)cc2)O[C@@H]1c1ccccc1CN=[N+]=[N-] | 1.49
COc1ccc([Si](C)(C)[C@@H]2[C@@H](CCO)O[C@]3(C(=O)N(Cc4ccccc4)c4ccc(N(C=O)c5ccccc5)cc43)[C@H]2C)cc1 | -0.525
[N-]=[N+]=Nc1ccccc1[C@@H]1OC(c2ccc(OCCCO)cc2)=N[C@]1(CCS(=O)(=O)c1ccccc1)C(=O)N1CCCCC1 | 3.01
CO[C@H]1O[C@H](CO)[C@@H](OC(=O)Nc2cccc(F)c2)[C@H](OC(=O)Nc2ccccc2-c2ccccc2)[C@@H]1OC(=O)Nc1ccccc1-c1ccccc1 | 1.96
O=c1cccc(-c2ccccc2)o1 | -0.0278
CC1(C)C(=O)C(c2ccccc2)=C2CN3C(=O)N(CCc4ccccc4)C(=O)C3(Cc3ccccc3)C=C21 (configuration not stated) | 1.68
C=CCC(OC(C)=O)[C@@H]1[C@@H](N(Cc2ccc(-c3cccc(C(F)(F)F)c3)o2)C(=O)Cc2ccc(OC)cc2)c2cc(OCCCO)ccc2N1C(=O)Cc1ccc(OC)cc1 (some centres not stated) | -0.132
C=C[C@H](C)[C@H](O)c1ccc(OCCO)cc1 | -1.27
CC(C)N1C(=O)c2ccccc2[C@](C)(C(=O)NC2CC2)[C@@H]1c1ccc(CO)cc1 | 0.931
C=CCN1C(=O)[C@]2(COC(c3ccc(OCCCO)cc3)=N2)Cc2ccccc21 | 1.48
C=C(COC)C(=O)CC[C@H](OC(=O)c1cccnc1)c1ccccc1OCCO | 0.443
COC(=O)[C@@]1(Cc2ccc(OC)cc2)[C@H]2c3cc(C(=O)N(C)C)n(CCSCCO)c3C[C@H]2CN1C(=O)c1ccccc1 | 0.569
C=C[C@H](C)[C@H](OC(=O)Nc1ccc(OC)cc1)c1ccc(O)c2ccccc12 | -0.596
O=C(NCC(O)CO)[C@@]1(Cc2ccccc2)COC(c2ccc(OCCCO)cc2)=N1 (some centres not stated) | -0.363
O=C1OCC=C[C@H]2OC34C=CCN(c5ccc6ccccc6c5)C(=O)[C@H]3N(CCO)C(=O)[C@@H]4[C@@H]12 (some centres not stated) | -0.74
C=C(CCCC)C(=O)CC[C@H](OC(=O)c1ccccc1-c1ccccc1C(=O)O)c1ccc(CO)o1 | 1.65
C=C(/C(=C/C[C@@H](OC(C)=O)c1ccc(CO)o1)c1cnc2ccccc2c1)C(C)C | 0.818
COc1c(C)cc(-c2cc3c(c(-c4ccccc4)n2)[Si](C(C)C)(C(C)C)O[C@H]3c2ccccc2)cc1C | 0.614
O=c1cccc(-c2cccc3ccccc23)o1 | 0.541
COCCCNC(=O)[C@@]1(Cc2ccccc2I)c2ccccc2C(=O)N(Cc2ccccc2)[C@H]1c1ccc(CO)cc1 | -1.4

Data credit: PubChem BioAssay
